- Tested on: SF-539
- assay_protocol: NCI tumour cell line growth inhibition, 48 h
Activity calls are given as the source filed them. Rule as the data show it: active = GI50 up to about 1.1 µM and inactive = higher.
Outcome field: choose from t for active, f for inactive

Fill in: this test's call for `CO[C@H]1C[C@H](O[C@H]2CC[C@@]3(C)[C@H](CC[C@@H]4[C@@H]3CC[C@]3(C)[C@@H](C5=CC(=O)OC5)CC[C@]43O)C2)O[C@H](C)[C@H]1O` is ___ t

Outcome logged for `CCOC(=O)/C(SC#N)=C(/N)N1CCCC1` in this assay: f

Field: outcome | Entry: CC1OCC2OC(C)OC(C3C4=C(CC(C)(C)CC4=O)OC4=C3C(=O)CC(C)(C)C4)C2O1 (centres undefined) f

What did the test return for `Cc1ccc2c(O)cc(-c3sccc3C)nc2n1` ? t

* * *

- Tested on: NCI-H460
- assay_protocol: NCI tumour cell line growth inhibition, 48 h
Calls of active or inactive are those of the source. Cut-off read from the data, not from the text of the source: active = GI50 up to about 1.1 µM and inactive = higher.
Log the outcome using a class from t (active), f (inactive)

compound=CC(=O)OCCOCn1cnc2c(Cl)nc(Cl)nc21 group=f

Could you check what this test reported for N#CC1C(=O)C(=O)N(c2ccccc2)C1=O (stereo not given) ? f

Test call, this compound: `Cc1ccnn1CCc1ccc(Cl)cc1Cl` f

* * *

- Tested on: A498
- assay_protocol: NCI tumour cell line growth inhibition, 48 h
Activity calls are given as the source filed them. Cut-off read from the data, not from the text of the source: active = GI50 up to about 1.1 µM and inactive = higher.
reported_endpoint: GI50

compound=CC1=C(C(=O)NCc2ccccc2)C(c2ccco2)C(C(=O)NCc2ccccc2)=C(C)N1 tested_on=A498 reported_endpoint=GI50 readout_value="> 100 µM (inactive)"
compound="CCCNC(C#N)c1ccc(C(C#N)NCCC)cc1 (configuration not stated)" tested_on=A498 reported_endpoint=GI50 readout_value="> 100 µM (inactive)"
compound=COc1cc(C/C=C/c2ccccc2)c(OC)cc1O tested_on=A498 reported_endpoint=GI50 readout_value="80.4 µM (inactive)"
compound=O=C(/C=C/c1ccccc1)NNC(=O)c1c(Cl)c(Cl)c(Cl)c(Cl)c1-c1nc2ccccc2[nH]1 tested_on=A498 reported_endpoint=GI50 readout_value="29.6 µM (inactive)"

Give A498 GI50 for CC(=O)[C@H]1CC[C@@H]2[C@]1(C)CC=C1[C@]23C=C[C@]2(C[C@@H](O)CC[C@]12C)C(C(=O)O)C3C(=O)O (some centres not stated) > 100 µM (inactive)

Which measured GI50 belongs to `C#C[C@]1(O)CC[C@H]2[C@@H]3CCC4=C/C(=N/OCCN(C)C)CC[C@]4(C)[C@H]3CC[C@@]21C` , tested on A498? 41.4 µM (inactive)

For the record OC1C2CN3CCN(C2)CC1(c1ccccc1)C3 (configuration not stated) , what value of GI50 is listed for A498? > 100 µM (inactive)

Value wanted: GI50 (A498) of entry `Clc1cc2nsnc2c(Cl)n1` > 100 µM (inactive)

Give GI50 (A498) of the following compound: COC(=O)[C@]1(C)CCC[C@@]2(C)C1CCC1=CC3(C(C)C)CCC12OO3 (some centres not stated) 18.7 µM (inactive)

Hello, I am looking for reported GI50 with A498 for CC(C)=CCc1c(O)c(CC2=C(O)C(CC=C(C)C)(C(=O)C(C)C)C(O)=C(C)C2=O)c(O)c(C(=O)C(C)C)c1O (configuration not stated) . Could you help? 9.57 µM (inactive)

* * *

- Tested on: M14
- assay_protocol: NCI tumour cell line growth inhibition, 48 h
Where a name gives a salt, the structure may show the parent alone. The source made the active and inactive calls. No stated cut-off is given here; in the data, active = GI50 up to about 1.1 µM and inactive = higher.
Use one of these outcomes when replying: yes = active, no = inactive

Worked set:
compound=Cc1c(S(=O)(=O)c2ccccc2)c(N)n(CCN(C)C)c1C group=no
compound="CC(CN1c2ccccc2Sc2ccccc21)N(C)C (stereo not given) [PROMETHAZINE HYDROCHLORIDE]" group=no
compound="CC(=O)OC1COC(N2CCc3ccccc32)C(OC(C)=O)C1OC(C)=O (stereo not given)" group=no
compound="CC1=C(C2=C(C)C(=O)c3c(c(C=O)c(O)c(O)c3C(C)C)C2=O)C(=O)c2c(C=O)c(O)c(O)c(C(C)C)c2C1=O [GOSSYPOLONE]" group=no

Now look at this one.
Which outcome did this test record for the compound C/C=C/C=C\C=C/C(O)C(C)C(CCC(C)C1OC(=O)C=CC1C)OP(=O)(O)O (stereo not given) ? yes

* * *

# GI50 values compiled below
- Tested on: M14
- assay_protocol: NCI tumour cell line growth inhibition, 48 h
The source made the active and inactive calls. Cut-off read from the data, not from the text of the source: active = GI50 up to about 1.1 µM and inactive = higher.

Worked examples, 3 compounds total:
compound=CC1(C)CC(=O)c2c(nc3c4c([nH]c(-c5ccc([N+](=O)[O-])cc5)c24)CC(C)(C)C3)C1 tested_on=M14 readout_value="27.7 µM (inactive)"
compound="O=C1C(Cl)C(c2ccccc2Cl)N1n1cnc2ccccc2c1=O (stereo unspecified)" tested_on=M14 readout_value="94 µM (inactive)"
compound="CC1c2cc(c3c(c2O)CN([C@@H](C)C2CCCCC2)CO3)C(C)c2cc(c3c(c2O)CN([C@@H](C)C2CCCCC2)CO3)C(C)c2cc(c3c(c2O)CN([C@@H](C)C2CCCCC2)CO3)C(C)c2cc1c1c(c2O)CN([C@@H](C)C2CCCCC2)CO1 (stereo partly specified)" tested_on=M14 readout_value="2.3 µM (inactive)"

Look up GI50: `CC1(C)NC(C)(C)/C(=N\O)C(=NO)/C1=N/O` > 100 µM (inactive)

Dear colleague, I am looking for the recorded GI50 of the following compound: `CN(C)c1nc(-c2ccccc2)c(C(=O)c2c[nH]c3ccccc23)s1` 4.59 µM (inactive)

Sample `CC1=C(C(=O)NCc2ccccc2)C(c2ccco2)C(C(=O)NCc2ccccc2)=C(C)N1` — what was its GI50? 57 µM (inactive)

Reported GI50 for `Clc1ccccc1C(n1ncc2ccccc21)n1ncc2ccccc21` : what is it? 31 µM (inactive)

Report GI50 for O=S(=O)(c1ccccc1)N1CCC1c1ccccc1 (stereo unspecified) please. > 100 µM (inactive)

# input compound: `c1ccc(SC(Sc2ccccc2)c2ccc3c(c2)OCO3)cc1` ; wanted: its GI50 > 100 µM (inactive)

Returns the measured GI50 for the input compound. Input: `O=C(Cc1ccccc1)Nc1nc2ccc(Cl)cc2c2nc(-c3ccco3)nn12` > 100 µM (inactive)

Consider the compound shown here: CCOC(=O)c1c(-c2ccc(OC)cc2)c(C#N)c(=S)n(C2OC(COC(C)=O)C(OC(C)=O)C(OC(C)=O)C2OC(C)=O)c1C (stereo unspecified) What is its recorded GI50? > 100 µM (inactive)

* * *

- System: CAKI-1
- assay_protocol: NCI tumour cell line growth inhibition, 48 h
Activity calls are given as the source filed them. Rule as the data show it: active = GI50 up to about 1.1 µM and inactive = higher.
Choose one outcome from this list and give only that: active, inactive

Example entries and their recorded answers appear below.
compound=O=S(=O)(O)c1cc(/N=N/c2c(O)ccc3ccccc23)cc2c(S(=O)(=O)O)cccc12 group=inactive
compound=CCOC(CN(C)C(=O)Nc1ccc(Cl)c(Cl)c1)OCC group=inactive
compound="C/C(=N\\NC(N)=S)C(CN(CC(C)C)CC(C)C)C(=O)Nc1ccc(C)cc1C (configuration not stated)" group=inactive
compound=C/C(=N\Nc1nc2ccccc2s1)c1cc2ccccc2cn1 group=inactive
compound="CC1c2cc(c3c(c2O)CN([C@@H](C)C2CCCCC2)CO3)C(C)c2cc(c3c(c2O)CN([C@@H](C)C2CCCCC2)CO3)C(C)c2cc(c3c(c2O)CN([C@@H](C)C2CCCCC2)CO3)C(C)c2cc1c1c(c2O)CN([C@@H](C)C2CCCCC2)CO1 (some centres not stated)" group=inactive

Consider now this further compound.
Please let me know the test result on file for `COc1ccc2c(c1)Cc1c(NCCN(C)C)ccc(C(=O)NCCCN(C)CCCNC(=O)c3ccc(NCCN(C)C)c4c3Nc3ccc(OC)cc3C4)c1N2` . active

* * *

- System: SR
- assay_protocol: NCI tumour cell line growth inhibition, 48 h
The source made the active and inactive calls. Rule as the data show it: active = GI50 up to about 1.1 µM and inactive = higher. Starred links: 1 amine or outer side, 2 acyl side, 3 side chain; linkers in the order of their positions; H or OH if unused. Non-standard residues stand in square brackets, D forms with d. Residues, ends and D or L forms follow the SMILES beside them. *: point of attachment. X47 = CCC(=O)CC1CC(C)CC(C(=O)[*:2])N1[*:1]; X46 = CCCCCCCCC(C)C(=O)*; Aib = CC(C)(N)C(=O)O; X48 = CC(CN(C)CCO)N*
Lab note: assign the record to one of active, inactive

Consider the following illustrative entries.
compound=O=C(Nc1ccc(S(=O)(=O)Nc2ncccn2)cc1)c1c2ccccc2nc2ccccc12 tested_on=SR group=inactive
compound=CC1=C(C(=O)NCc2ccccc2)C(c2ccco2)C(C(=O)NCc2ccccc2)=C(C)N1 tested_on=SR group=inactive
compound=CC1=C(C(=O)CC(=O)C(=O)Nc2cccc(Cl)c2C)Sc2ccccc2N1 tested_on=SR group=inactive
compound="C=C(Cl)/C(=C\\Br)CCC(Cl)C(C)C.C=C(Cl)/C(=C\\Cl)CCC(Cl)C(C)C (stereo unspecified)" tested_on=SR group=inactive
compound="NC(=O)c1cc([N+](=O)[O-])cc([N+](=O)[O-])c1 [NITROMIDE]" tested_on=SR group=inactive

Field: outcome | Entry: O=C1c2ccccc2-n2nnnc2C2CSCN12 (stereo unspecified) inactive

Given `CN(C)c1cccc(/C=C(\C#N)c2ccccc2)c1` , state the outcome it received in this test. active

What is the recorded call for this compound in the test? `c1ccc(-c2ccc(-c3ccc(C4=NCCN4)cc3)o2)cc1` active

Per the records of this test, what outcome belongs to C=CC1=C(C)c2cc3[nH]c(c4c5nc(cc6[nH]c(cc1n2)c(C)c6CC)C=C5C(=O)C4C(=O)OC)C(CCC(=O)OC/C=C(\C)CCCC(C)CCCC(C)CCCC(C)C)C3C.C=CC1=C(C)c2cc3[nH]c(c4c5nc(cc6[nH]c(cc1n2)c(C=O)c6CC)C=C5C(=O)C4C(=O)OC)C(CCC(=O)OC/C=C(\C)CCCC(C)CCCC(C)CCCC(C)C)C3C (stereo unspecified) ? inactive

Tell me the assay call for `C[n+]1c2ccccc2c(NCC(=O)O)c2ccccc21` please. inactive

Could you kindly confirm the outcome this assay logged for CCCCCCCCC(C)C(=O)N1CCCC1C(=O)N1C(CC(=O)CC)CC(C)CC1C(=O)NC(C)C(=O)NC(C)(C)C(=O)NC(C)(C)C(=O)NC(C(=O)NC(C)C(=O)NC(C)(C)C(=O)NC(C)(C)C(=O)NC(C)CN(C)CCO)C(C)CC (stereo unspecified) (X46-P[X47]A[Aib][Aib]IA[Aib][Aib]-X48; configuration not given here) ? active

Dear all, I need the recorded test outcome for `CCCCCCCCCCCCOCCCOP(=O)([O-])OCC[N+](C)(C)C` , thank you. inactive

Field: outcome | Entry: C[C@]12CC[C@H](OC3OC(CO)C(O)C(O)C3O)C[C@H]1CC[C@@H]1[C@@H]2CC[C@]2(C)[C@@H](C3=CCOC3=O)CC[C@]12O (stereo partly specified) inactive
